# credit: PubChem BioAssay (NCI)

- Tested on: IGROV1 ovarian
- assay-info: NCI-60 one-dose screen, 48 h
- condition-parameters: 10 µM unless noted
- Procedure: Growth inhibition of the IGROV1 human tumor cell line is measured as a screen for anti-cancer activity. Cells are grown in 96 well plates and exposed to the test compound for 48 hours. Compounds are tested at a single concentration, which is 10^-5 M for most compounds. The reported endpoint is percent growth (GI% or GIPRCNT), where numbers from 0 - 100% represent growth inhibition, and numbers from -100% - 0 represent cell death. For example, a value of 40 represents 60% growth inhibition. […]
Compounds without any hit were thinned out: in the full panel of roughly 83,000, 20% have a hit. Activity calls are given as the source filed them. The calls were made as follows: active = growth percent below 10; inactive = the rest.
// allowed return values: active, inactive

A selection of reference data follows.
{"molecule": "CN(C)CCN(C)CC(C)(C)C(=O)/C=C/c1ccc(Cl)c(Cl)c1", "label": "active"}
{"molecule": "c1ccc(C2NCCNC2c2ccccc2)cc1 (stereo not drawn)", "label": "inactive"}

Turning to the following molecule.
Query: Can you look up the reported call for C[n+]1ccccc1C[n+]1ccccc1 for me?
Reply: inactive
